Task for the reader: assign each of the following compounds its reported k el at 24 h.
assay: Elimination rate constant in Wistar rat at 30 mg/kg,iv measured after 24 hrs by HPLC analysis; type: ADME, organism-based; settings: in vivo
Report the figure in s⁻¹ without appending any unit label.

Give recorded k el at 24 h. CCCCCCCCCCCCCCCC(=O)OC(C)CCCCn1c(=O)c2c(ncn2C)n(C)c1=O (centres undefined)
4.72e-05

Give recorded k el at 24 h. CCCCCCCCC=CCCCCCCCC(=O)OC(C)CCCCn1c(=O)c2c(ncn2C)n(C)c1=O (centres undefined)
4.44e-05

Give recorded k el at 24 h. CC(CCCCn1c(=O)c2c(ncn2C)n(C)c1=O)OC(=O)CCCCC1CCSS1 (centres undefined)
0.000142

Give recorded k el at 24 h. CCCCC/C=C/CC=CCCCCCCCC(=O)OC(C)CCCCn1c(=O)c2c(ncn2C)n(C)c1=O (centres undefined)
6.39e-05

----------
test: Elimination rate constant in Wistar rat at 15 mg/kg,iv measured after 24 hrs by HPLC analysis; type: ADME, organism-based; settings: in vivo
measured_metric: k el at 24 h (s⁻¹)
Report the figure in s⁻¹ without appending any unit label.

Give recorded k el at 24 h. `C[C@@H](O)CCCCn1c(=O)c2c(ncn2C)n(C)c1=O`
0.000257

----------
assay: AUC (0 to t) in Wistar rat at 15 mg/kg, iv measured after 24 hrs by HPLC analysis; type: ADME, organism-based; parameters: route intravenous, dose 15 mg/kg, time 24 hrs; conditions: in vivo
measured_metric: AUC(0-t) at 24 h (ng·h/mL)
Report the figure in ng·h/mL without appending any unit label.

Give recorded AUC(0-t) at 24 h. `C[C@@H](O)CCCCn1c(=O)c2c(ncn2C)n(C)c1=O`
14700

----------
test: Half life in Wistar rat at 15 mg/kg, iv measured after 24 hrs by HPLC analysis; type: ADME, organism-based; settings: in vivo
measured_metric: half-life (min)
Report the figure in min without appending any unit label.

Give recorded half-life. `C[C@@H](O)CCCCn1c(=O)c2c(ncn2C)n(C)c1=O`
45.1

----------
assay: AUMC (0 to infinity) in Wistar rat at 15 mg/kg, iv by HPLC analysis; assay type: ADME, organism-based; details: in vivo
measured_metric: AUMC

Give recorded AUMC. `C[C@@H](O)CCCCn1c(=O)c2c(ncn2C)n(C)c1=O`
12800 ng·h²/mL

----------
system: Rattus norvegicus; experiment: Protection against STZ-induced oxidative stress-mediated liver toxicity in Wistar rat assessed as reduction in plasma ASAT level at 30 mg/kg, ip administered once daily for 5 weeks measured after 3 to 5 weeks; format: functional, organism-based; conditions: time 3-5 weeks
Activity calls are given as the source filed them. No cut-off for these calls is given here.

- compound: "CCCCC/C=C/CC=CCCCCCCCC(=O)OC(C)CCCCn1c(=O)c2c(ncn2C)n(C)c1=O (centres undefined)"
  Activity: "Active"
- compound: "CCCCCCCCCCCCCCCC(=O)OC(C)CCCCn1c(=O)c2c(ncn2C)n(C)c1=O (centres undefined)"
  Activity: "Active"
- compound: "CC(CCCCn1c(=O)c2c(ncn2C)n(C)c1=O)OC(=O)CCCCC1CCSS1 (centres undefined)"
  Activity: "Active"
- compound: "CCCCCCCCC=CCCCCCCCC(=O)OC(C)CCCCn1c(=O)c2c(ncn2C)n(C)c1=O (centres undefined)"
  Activity: "Active"

// provenance: ChEMBL document CHEMBL5036346
